Entries and their protein stability index values follow.
assay name: protein stability index of a GFP-peptide fusion (GPS, HEK-293T) (PSI 1-6); higher = more stable;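 further: 24-mer peptide tiles fused after GFP, lentivirally expressed, FACS-sorted into six equal bins by GFP/DsRed ratio, decoded by Illumina sequencing, PSI is the read-weighted mean bin number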
run parameters: treatment: DMSO; c terminus: a fixed tail appended
Could you keep your reply to the number by itself?

QPGLLHLQSCGDLHTFTPAGRPRA [FAM189A2]; 5.66
DLPSSTPVANSGTKPKTTAIQGIS [DLC1]; 4.75
INKIAGHPLAQNERCLHMFLQEEA [SNX12]; 3.07

So, LKKFLYNFDNPWNFQNIPKETELP [MIA2] ? Its protein stability index was 3.06

So, EFSIDNYPTDNTKVMIFKSSYSLS [MIA2] ? Its protein stability index was 2.75

So, AVVQLYLALPPGAEHWTKEHCGAV [WAS] ? Its protein stability index was 3.03

So, CWDMQGKRFVAMKVVKSAQHYTET [SRPK2] ? Its protein stability index was 2.34

So, NTIAFRHLFLLGYSDGADDTFAAY [MCOLN1] ? Its protein stability index was 2.46

So, QQVCQWLLWATNEFSLVNVNLQRF [ETS2] ? Its protein stability index was 3.01

So, PLLLRLPRICQRNLMSLLMAVRPS [FANCE] ? Its protein stability index was 2.45

So, PTICMAYLMKTKQFRLKEAFDYIK [DUSP5] ? Its protein stability index was 2.27

So, TDGRSPRRSRDPGYDHLWDETLSS [PLEKHN1] ? Its protein stability index was 4.33

So, NKISRFQAPISAPEYTYGISNIDT [MFF] ? Its protein stability index was 3.42

So, RQDAKYLNMRSTYAKLAAVAVFFI [SEC22B] ? Its protein stability index was 2.35

So, MNLELLESFGQNYPEEADGTLDCI [RBBP5] ? Its protein stability index was 4.77

So, DSAKREVKQKISPYFKSNDVVCKN [FAN1] ? Its protein stability index was 3.95

So, GLDPEPLPLMDLCRRSVRLALGRE [SPSB1] ? Its protein stability index was 4.02

So, RKDPYGKPVDMWACGVILYILLVG [CAMK2D] ? Its protein stability index was 2.53

So, PETQLFWDKEPWFWHDTLTEQLWR [TLE6] ? Its protein stability index was 2.7

So, LDRDALKQSLVVAVQDHGQPPLSA [PCDHGA10] ? Its protein stability index was 4.49

So, DLDDFAGFSCNQGRYPLIQTLRQE [CHIT1] ? Its protein stability index was 3.44

So, LMADLVADISEAEQRTIQAQKESL [APBB1IP] ? Its protein stability index was 3.5

So, PRQADHDDHECCERVVINISGLRF [KCNA1] ? Its protein stability index was 3.1

So, GFLPWLMNEVEKTMEYSMVGRTVL [RSPH3] ? Its protein stability index was 2.8

So, VFSDTATPDIKSHYAFRIFDFDDD [CIB1] ? Its protein stability index was 3.19
